PBM binding z-score listing for selected sequences.
tested on: RXRa homodimer (NR concentration 180 nM); test: PBM binding z-score (relative to random genomic background probes); higher = stronger binding; sequences stand for … in GC…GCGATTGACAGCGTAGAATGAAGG
REPORTED_ENDPOINT: PBM binding z-score

>>> experimental_value("CCTAGCAGGCCAATCTGGTTCACTCAAGGCTTGA")
-0.304
>>> experimental_value("CCTACTGGGCTAAAGGTCATTGATTCCAATGCTC")
5.21
>>> experimental_value("CCTACTGGACCATTCAGAGGTCATTGATCATATG")
3.99
>>> experimental_value("GATACAGGGTCAAGGCCACAGTACGCGTATTGAT")
5.9
>>> experimental_value("TCTCGGAGGACACGATGGTCAGAGCTTTCCAGAG")
0.00404
>>> experimental_value("AATACAGGGTCATCGTAGGCCAGTGTACGCACAG")
6.76
>>> experimental_value("TTACCAAGGTGAGCTGAGGTCGTTGCTCCAACTC")
1.26
>>> experimental_value("TCTCGGAGGACAGGAAAGGTCAGAGCTCGACATC")
3.83
>>> experimental_value("GCGACTGGGGCAACAGCAGGTTACCATAACTTAA")
0.454
>>> experimental_value("GATACAGGGTCAAGACCAGAGTACGCGTATTGAT")
5.54
>>> experimental_value("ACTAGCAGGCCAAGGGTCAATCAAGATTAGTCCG")
4.62
>>> experimental_value("TGAATGAGGTTATAAGATCAGGGAACGTTGCAAA")
1.86
>>> experimental_value("TCCGACAGGTGAAGGTAACTCAGGTACGCAGTCG")
0.788
>>> experimental_value("GGAACGAGGGCATTCTAGTTGATAGCATGGCGAT")
0.575
>>> experimental_value("ATCGAAAGGTCGTGAGTTGAGTATACAGAAAGGC")
4.88
>>> experimental_value("ATACCAAGGTGATCGTGGGGTCGTTGATACTAAC")
2.34
>>> experimental_value("TCGAGTAGGCTAGGGGCATTCAGAATGGCGTCGA")
0.0581
>>> experimental_value("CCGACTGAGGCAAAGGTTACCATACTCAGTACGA")
2.61
>>> experimental_value("TGTCAAAATTCAAAGGTAACGTAAGTATCCACAC")
0.772
>>> experimental_value("TGAATGAGGTTTTAAGATCAGGGAACGTTGCAAA")
-0.145
>>> experimental_value("CGAACTAAGTCAAGGACAGTGAATCTCCGCACGC")
-0.164
>>> experimental_value("AGAATGAGGTTACCTAAGATCAGGGAAACGCTTG")
2.66

====

system: LXRa:RXRa (NR concentration 270 nM, RXRa partner concentration 90 nM); assay: PBM binding z-score (relative to random genomic background probes); higher = stronger binding; sequences stand for … in GC…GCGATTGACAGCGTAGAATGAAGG
# PBM binding z-score >= 1 gives YES, anything below gives NO

>>> assigned_label("CCTCGGAGGACAGTAGGTCAGAGCTGTCCGCTTT")
"NO"
>>> assigned_label("CCTTACGGGTCACTCCAGGTTACAGCATCGGAGT")
"YES"
>>> assigned_label("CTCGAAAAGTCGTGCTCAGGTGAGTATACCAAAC")
"NO"
>>> assigned_label("CCGACTGGGGCAGAAGGTTACCATAAGCCAGCCC")
"YES"
>>> assigned_label("CCACACAGGTGAAAGGTAACTCAGTCTGGTACGC")
"YES"
>>> assigned_label("ATCTCTAGGTAAAGATACTTCAGTGAATGCAAAT")
"NO"
